- test_summary: Half life in serum of cynomolgus monkey at 1 mg/kg, po after 0.5 to 24 hrs
- Format: ADME, organism-based, Macaca fascicularis
- Set-up: dose 1 mg/kg, route oral
parameter: half-life

INSERT INTO assay_data (smiles_structure, result) VALUES
  ('CN1CCc2nc(C(=O)Nc3ccccc3CNC(=O)c3ccc(Cl)s3)sc2C1.Cl', '3.8 h');

----------
Each record here notes measured Activity.
- Test system: Plasma
- test_summary: Anticoagulant activity in human plasma assessed as concentration required to double prothrombin time
- Format: functional
parameter: Activity (µM)

INSERT INTO assay_data (molecule, bound_operator, number) VALUES
  ('CN1CCc2nc(C(=O)N[C@@H]3CCCC[C@@H]3CNC(=O)c3ccc(Cl)s3)sc2C1 (relative stereo)', '=', 3.4),
  ('CN1CCc2nc(NC(=O)c3ccccc3CNC(=O)c3ccc(Cl)s3)sc2C1', '=', 2.3),
  ('CN1CCc2nc(C(=O)Nc3cccnc3CNC(=O)c3ccc(Cl)s3)sc2C1', '=', 1),
  ('CN1CCc2nc(C(=O)Nc3ccccc3CC(=O)Nc3ccc(Cl)cn3)sc2C1', '=', 17),
  ('O=C(Nc1ccccc1CNC(=O)c1ccc(Cl)s1)c1ccc(N2CCOCC2=O)cc1', '=', 0.91),
  ('CN1CCc2nc(C(=O)NCCCNC(=O)c3ccc(Cl)s3)sc2C1', '=', 7.6),
  ('CN1CCc2nc(C(=O)Nc3cnccc3CNC(=O)c3ccc(Cl)s3)sc2C1', '=', 1.8),
  ('CN1CCc2nc(C(=O)Nc3ccncc3CNC(=O)c3ccc(Cl)s3)sc2C1', '=', 1.4),
  ('CC(C)N1CCC(C(=O)Nc2ccccc2CNC(=O)c2ccc(Cl)s2)CC1', '=', 5.2),
  ('CN1CCc2nc(C(=O)Nc3ncccc3CNC(=O)c3ccc(Cl)s3)sc2C1', '=', 1.5),
  ('CN1CCc2nc(C(=O)Nc3ccccc3CNC(=O)c3cc(Cl)c[nH]3)sc2C1', '=', 2.2),
  ('O=C(NCc1ccccc1C(=O)Nc1ccc(N2CCOCC2=O)cc1)c1ccc(Cl)s1', '=', 1),
  ('CN1CCc2nc(C(=O)N[C@@H]3CCCC[C@H]3CNC(=O)c3ccc(Cl)s3)sc2C1 (relative stereo)', '=', 17),
  ('CN1CCc2nc(C(=O)N3CCC(NC(=O)c4ccc(Cl)s4)CC3)sc2C1', '>', 20);
